Attribution: paper PMC5540273

System: PCTK3
Construct: gene CDK18
Test settings: concentration: 1 μM,replicates: in singlicate; n = 1;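 also: KINOMEscan kinase panel screen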
Quick reference for %Inh among some molecules
Numeric answer only, unit % assumed.

Here is how some molecules turned out for %Inh.
Fill in the recorded %Inh for this molecule, with PCTK3 as test system: Cn1ccc2ncnc(Oc3ccc(NC(=O)Nc4ccnc(C(F)(F)F)c4)c(Cl)c3)c21
0

Also O=c1[nH]cc(-c2ccc(O)cc2)c2sc(-c3ccncc3)cc12 [GSK1033723] , if possible.
17

Also C[C@@H]1CNc2c(sc3ccc4nc(-c5ccncc5)ccc4c23)C(=O)N1 , if possible.
0

Also CC(=O)Nc1ccc(-c2cc3ncnc(SCC(=O)O)c3s2)cc1 , if possible.
24

Also CN(c1ccc2c(c1)nc(NCc1ccc(F)cc1)n2C)c1ccnc(Nc2ccc(CS(C)(=O)=O)cc2)n1.Cl [GW813244] , if possible.
0

New cases:
Fill in the recorded %Inh for this molecule, with PCTK3 as test system: CNC(=O)c1ccccc1Nc1nc(Nc2cccc(CS(C)(=O)=O)c2)ncc1C.O=CO [GSK1520489]
18

Also O=C(Nc1cccc(Oc2ccc3nccn3n2)c1)Nc1cccc(C(F)(F)F)c1 , if possible.
8

Also COC(=O)c1cccc(NC(=O)NC2CCN(c3ccnc(Nc4cc(OC)c(OC)c(OC)c4)n3)C2)c1 (centres unmarked) [GSK1379767] , if possible.
0

====

Quick reference for %Inh among some compounds
Tested on: TSSK3
Test settings: concentration: 1 μM,replicates: in singlicate; n = 1
Numeric answer only, unit % assumed.

Here is how some compounds turned out for %Inh.
If you can, please state the reported %Inh value of Nc1nccc(-c2ccc3c(N)n[nH]c3c2)n1 [GSK1034945] .
27

Also Cn1cc(-c2cccc3c(N)c(C(N)=O)nnc23)cn1 , if possible.
0

New cases:
If you can, please state the reported %Inh value of Cc1ccc(CC(=O)N2CCc3cc(-c4cn(C)c5ncnc(N)c45)ccc32)cc1 [GSK2634758] .
13

Also CN(c1ccccc1CNc1nc(Nc2ccc3c(c2)CC(=O)N3)ncc1C(F)(F)F)S(C)(=O)=O , if possible.
0

Also Cc1ccc(C(=O)Nc2ccc(Oc3ccc4nc(NC(=O)C5CC5)cn4c3)c(F)c2)c(=O)n1-c1ccccc1 , if possible.
0

====

System: PKN2
Test settings: concentration: 1 μM,replicates: in singlicate; n = 1
Quick reference for %Inh among some compounds
Numeric answer only, unit % assumed.

If you can, please state the reported %Inh value of Cc1cccc(-c2nc(Nc3ccncc3)c3sccc3n2)n1 .
12

New cases:
If you can, please state the reported %Inh value of CN1CCN(CCCNc2nccc(-c3c(-c4ccc(F)cc4)nn4cc(C(N)=O)ccc34)n2)CC1 .
0

Also CC(C)S(=O)(=O)N1CCN(Cc2ccc3c(c2)nc(NC(=O)c2ccsc2)n3C[C@H](O)c2ccccc2)CC1 , if possible.
25

Also C[C@@H]1CNc2c(sc3ccc4nc(-c5ccncc5)ccc4c23)C(=O)N1 , if possible.
15

Also O=c1[nH]cc(-c2ccc(O)cc2)c2sc(-c3ccncc3)cc12 , if possible.
0

Also C[C@@H](Oc1cc(-n2cnc3cc(-c4ccncc4)ccc32)sc1C(N)=O)c1ccccc1Cl , if possible.
44

Also Cc1ccc(Nc2ccnc(Nc3ccc4c(c3)CS(=O)(=O)C4)n2)cc1O.Cl , if possible.
0

Also COc1cc2ncn(-c3cc(OCC4CCCCC4)c(C(N)=O)s3)c2cc1OC , if possible.
0

Also CN1CCN(CCNc2nc3cc(Oc4ccc(NC(=O)Nc5cc(C(F)(F)F)ccc5F)cc4)ccc3[nH]2)CC1.Cl.Cl , if possible.
8

====

Test system: MST4
Test settings: concentration: 1 μM,replicates: in singlicate; n = 1
Measured parameter: %Inh (%)
Numeric answer only, unit % assumed.

Here is how some compounds turned out for %Inh.
If you can, please state the reported %Inh value of CS(=O)(=O)c1cccc(CNc2nc(Nc3ccc4c(c3)[C@@H]3C[C@@H]4CNC3=O)ncc2C(F)(F)F)c1 .
0

Also COc1ccc(Nc2nccc(N3CCC(NC(=O)c4cccc(C#N)c4)C3)n2)cc1 (centres unmarked) , if possible.
0

Also CC(C)c1nc(-c2cccc(NS(=O)(=O)c3ccccc3)c2)c(-c2ccnc(Nc3ccc4c(c3)CN(C)CC4)n2)s1 , if possible.
82

Also Cc1ccc(Nc2ccnc(Nc3ccc4c(c3)CS(=O)(=O)C4)n2)cc1O.Cl , if possible.
25

Also CCN1CCN(CCCC(=O)Nc2n[nH]c3nc(-c4ccc(O)cc4)c(Br)cc23)CC1 , if possible.
60

New cases:
If you can, please state the reported %Inh value of C[C@@H](Oc1cc(-n2cnc3cc(-c4ccncc4)ccc32)sc1C(N)=O)c1ccccc1Cl .
0

Also COc1cc2c(Nc3ccc(NC(=O)c4ccccc4)cc3)ncnc2cc1OCCCN1CCOCC1 , if possible.
10

Also N#Cc1cccc(C(=O)NC2CCN(c3ccnc(Nc4ccc(F)cc4)n3)C2)c1 (centres unmarked) , if possible.
0

====

System: SIK
Test settings: concentration: 1 μM,replicates: in singlicate; n = 1
Please enter met where %Inh is greater than or equal to 7%, and not met where it is lower.

Worked set:
Please indicate if the recorded %Inh for C[C@@H](Oc1cc(-n2cnc3cc(-c4cnn(C)c4)ccc32)sc1C(N)=O)c1ccccc1Cl [GSK580432] meets or exceeds 7%.
met

Also O=C(Nc1ccccc1)c1cccc(Oc2ccc3nccn3n2)c1 , if possible.
not met

Also CC(C)c1nc(-c2cccc(NS(=O)(=O)c3ccccc3)c2)c(-c2ccnc(Nc3ccc4c(c3)CN(C)CC4)n2)s1 [GSK1649598] , if possible.
met

Also COc1cc2ncn(-c3cc(OCC4CCCCC4)c(C(N)=O)s3)c2cc1OC [GSK204559] , if possible.
not met

Also C[C@@H]1CNc2c(sc3ccc4nc(-c5ccncc5)ccc4c23)C(=O)N1 , if possible.
not met

New cases:
Please indicate if the recorded %Inh for COc1cccc(C2=C(Nc3cccc(Cl)c3)C(=O)NC2=O)c1 [SB-341556] meets or exceeds 7%.
not met

Also COC(=O)c1cccc(NC(=O)NC2CCN(c3ccnc(Nc4cc(OC)c(OC)c(OC)c4)n3)C2)c1 (stereo not drawn) [GSK1379767] , if possible.
not met

Also O=C(NOCC1CC1)c1cc(Br)c(F)c(F)c1Nc1ccc(I)cc1Cl , if possible.
not met

Also CS(=O)(=O)Nc1ccc(-c2ccnc3[nH]ccc23)cc1 [GSK993273] , if possible.
met

Also COC(=O)Nc1nc2cc(Oc3ccc(NC(=O)Nc4cc(C(F)(F)F)ccc4Cl)cc3)ccc2[nH]1.Cl [GW697465] , if possible.
not met

Also CSc1nccc(-c2c(-c3ccc(F)cc3)ncn2CCCN2CCOCC2)n1.Cl [SB-217146] , if possible.
not met

Also Cn1ccc2ncnc(Oc3ccc(NC(=O)Nc4ccnc(C(F)(F)F)c4)c(Cl)c3)c21 , if possible.
not met

Also O=C(Nc1cccc(C(F)(F)F)c1)c1cccc(Oc2ccc3nccn3n2)c1 , if possible.
not met

Also CNC(=O)c1ccccc1Nc1nc(Nc2cccc(CS(C)(=O)=O)c2)ncc1C.O=CO [GSK1520489] , if possible.
met

Also Cc1cccc2c(-c3ccncc3)c(-c3ccc(F)cc3)nn12.Cl [GW461487] , if possible.
not met

====

Tested on: CAMK2D
Test settings: concentration: 1 μM,replicates: in singlicate; n = 1
Quick reference for %Inh among some compounds
Answer by giving the amount and then stating its unit.

Here is how some compounds turned out for %Inh.
Fill in the recorded %Inh for this compound, with CAMK2D as test system: Cc1ccn2nc(-c3ccc(F)cc3)c(-c3ccncc3)c2c1.Cl [GW457859]
0%

Also CSc1nccc(-c2c(-c3ccc(F)cc3)ncn2CCCN2CCOCC2)n1.Cl [SB-217146] , if possible.
0%

New cases:
Fill in the recorded %Inh for this compound, with CAMK2D as test system: O=C1NCCc2[nH]c(-c3ccncc3)cc21
0%

Also Cc1ccc(C(=O)Nc2ccc(Oc3ccc4nc(NC(=O)C5CC5)cn4c3)c(F)c2)c(=O)n1-c1ccccc1 , if possible.
0%

Also Cn1ccc2ncnc(Oc3ccc(NC(=O)Nc4cncc(C(F)(F)F)c4)c(Cl)c3)c21 , if possible.
0%

Also CN1CCN(CCNc2nc3cc(Oc4ccc(NC(=O)Nc5cc(C(F)(F)F)ccc5F)cc4)ccc3[nH]2)CC1.Cl.Cl [GW768504] , if possible.
0%

Also COC(=O)c1cccc(NC(=O)NC2CCN(c3ccnc(NCc4ccc(F)cc4)n3)CC2)c1 [GSK1379860] , if possible.
0%

Also Cn1ccc2ncnc(Oc3ccc(NC(=O)Nc4cc(C(C)(C)C)on4)c(Cl)c3)c21 , if possible.
4%

Also COc1cc2nccc(Nc3ccc(Oc4ccccc4)cc3)c2cc1OC.Cl [GI261656] , if possible.
16%

Also C[C@@H]1CNc2c(sc3ccc4nc(-c5ccc(O)cc5)ccc4c23)C(=O)N1 , if possible.
32%

Also CN(c1ccccc1CNc1nc(Nc2ccc3c(c2)CC(=O)N3)ncc1C(F)(F)F)S(C)(=O)=O , if possible.
0%

Also Cn1cc(-c2cccc3c(N)c(C(N)=O)nnc23)cn1 , if possible.
15%

Also CC(C)S(=O)(=O)N1CCN(Cc2ccc3c(c2)nc(NC(=O)c2ccsc2)n3C[C@H](O)c2ccccc2)CC1 [GW635815] , if possible.
11%

Also Cl.Cl.NC[C@H](CC1CCCCC1)NC(=O)c1ccc(-c2ccnc3[nH]ccc23)s1 [GSK1581428] , if possible.
7%

Also COc1ccc(Nc2nccc(N3CCC(NC(=O)c4cccc(C#N)c4)C3)n2)cc1 (stereo not shown) [GSK1379730] , if possible.
0%
